Each recorded value in this set is attributed to the supplement of paper PMC6897291.

Tested on: U-2932
Assay: growth inhibition by drug alone (1 - RLU/untreated control) (fraction); higher = stronger inhibition
Settings: 10 nM; time (day): 4; 177Lu-lilotomab satetraxetan 0 ug/ml
So basically: growth inhibition by drug alone at 0.04 or higher? That is 1.0. Lower than 0.04? That is 0.0.

COMPOUND	ASSIGNED_CATEGORY
Cc1cnc(-c2cnc(NCCNc3ccc(C#N)cn3)nc2-c2ccc(Cl)cc2Cl)[nH]1	1.0
CC(NC(=O)c1ccccc1/N=C/c1c(O)ccc2ccccc12)c1ccccc1 (centres undefined)	1.0
C[C@@H](Oc1cc(-c2cnn(C3CCNCC3)c2)cnc1N)c1c(Cl)ccc(F)c1Cl	1.0
COC(=O)Nc1ccc(-c2nc(N3CCOCC3)c3cnn(C4CCN(C(=O)OC)CC4)c3n2)cc1	1.0
C=CC(=O)Nc1cccc(Oc2nc(Nc3ccc(N4CCN(C)CC4)cc3OC)ncc2Cl)c1	0.0
COc1cc2c(cc1O)CC[C@@H]1[C@@H]2CC[C@]2(C)[C@@H](O)CC[C@@H]12	0.0
Nc1nc(OCc2cc(Br)cs2)c2[nH]cnc2n1	0.0
CC(C)OC(=O)C1=CN(C(=O)c2ccc(F)c(F)c2)CC(C)(C)c2c1[nH]c1ccccc21	0.0

* * *

Parameter: growth inhibition by drug plus 177Lu-lilotomab satetraxetan. Scope: all listed entries.
System: RIVA
Assay: growth inhibition by drug plus 177Lu-lilotomab satetraxetan (1 - RLU/untreated control) (fraction); higher = stronger inhibition
Conditions: 10 nM; time (day): 5; 177Lu-lilotomab satetraxetan 0.5 ug/ml
Counter-ions that a name gives are not always drawn.
ENDPOINT_NAME: growth inhibition by drug plus 177Lu-lilotomab satetraxetan

COMPOUND	MEASURED_TARGET	RESULT
CN[C@@H](C)C(=O)N[C@H]1CN(C(=O)CC(C)C)CC[C@H]2CC[C@@H](C(=O)NC(c3ccccc3)c3ccccc3)N2C1=O	RIVA	0.581
CCOc1cc2ncc(C#N)c(Nc3ccc(F)c(Cl)c3)c2cc1NC(=O)/C=C/CN(C)C [Pelitinib (EKB-569)]	RIVA	0.448
CN(C)CCOc1ccc(/C(=C(/CCCl)c2ccccc2)c2ccccc2)cc1 [Toremifene Citrate (Fareston, Acapodene)]	RIVA	0.729
CN1CCN(CCOc2cc(OC3CCOCC3)c3c(Nc4c(Cl)ccc5c4OCO5)ncnc3c2)CC1	RIVA	0.508
O=C(NCCCNc1nc(Nc2cccc(NC(=O)N3CCCC3)c2)ncc1I)c1cccs1	RIVA	0.812
O=C(O)c1ccc(-c2c[nH]c3ncc(-c4ccccc4)cc23)cc1C1CCCC1	RIVA	0.552
CNC(=O)c1cc(Oc2ccc(NC(=O)Nc3cc(C(C)(C)C)nn3-c3ccc4ncccc4c3)c(F)c2)ccn1 [DCC-2036 (Rebastinib)]	RIVA	0.586
N#Cc1ccc(NC(=O)Nc2ccccc2Br)c2n[nH]nc12	RIVA	0.605
CN1CCN(c2nc(C3=C(c4c[nH]c5ccccc45)C(=O)NC3=O)c3ccccc3n2)CC1	RIVA	0.626
O=C(O)C(=O)O.[NH-]C1CCCCC1[NH-].[Pt+2] (stereo unspecified) [Oxaliplatin (Eloxatin)]	RIVA	0.621
O=C1c2c(O)ccc(O)c2C(=O)c2c(NCCNCCO)ccc(NCCNCCO)c21 [Mitoxantrone Hydrochloride]	RIVA	0.95
CC(=O)O[C@]1(C(C)=O)CC[C@H]2[C@@H]3C[C@H](C)C4=CC(=O)CC[C@]4(C)[C@H]3CC[C@@]21C [Medroxyprogesterone acetate]	RIVA	0.543
CC(C)C[C@@H](C(=O)N[C@H](C(=O)OC1CCCC1)c1ccccc1)[C@H](O)C(=O)NO	RIVA	0.613
CC(C)C(=O)Nc1ccc([N+](=O)[O-])c(C(F)(F)F)c1 [Flutamide (Eulexin)]	RIVA	0.649
C[C@@H](N)[C@H]1CC[C@H](C(=O)Nc2ccncc2)CC1	RIVA	0.605
CCN1CCN(Cc2ccc(-c3cc4c(N[C@H](C)c5ccccc5)ncnc4[nH]3)cc2)CC1	RIVA	0.553

* * *

System: U-2932
Test: growth inhibition by drug plus 177Lu-lilotomab satetraxetan (1 - RLU/untreated control) (fraction); higher = stronger inhibition
Conditions: 1000 nM; time (day): 6; 177Lu-lilotomab satetraxetan 1 ug/ml
ENDPOINT_NAME: growth inhibition by drug plus 177Lu-lilotomab satetraxetan

COMPOUND	RESULT
Fc1cc(-c2cccc3ncc(-c4cnn(C5CCNCC5)c4)nc23)cc(F)c1CN1CCOCC1	0.237
O=C(NCCCNc1nc(Nc2cccc(NC(=O)N3CCCC3)c2)ncc1I)c1cccs1	0.618
O=C(c1cc(Cc2n[nH]c(=O)c3ccccc23)ccc1F)N1CCN(C(=O)C2CC2)CC1	0.315
CN1CCC(CNc2ccc3ncc(-c4cccc(OC(F)(F)F)c4)n3n2)CC1 [SGI-1776 free base]	0.265
CC[C@]1(O)C[C@@H]2CN(CCc3c([nH]c4ccccc34)[C@@](C(=O)OC)(c3cc4c(cc3OC)N(C)[C@H]3[C@@](O)(C(=O)OC)[C@H](OC(C)=O)[C@]5(CC)C=CCN6CC[C@]43[C@@H]65)C2)C1	0.984
CC(C)[C@H](C(=O)Nc1ccc(C(=O)NO)cc1)c1ccccc1	0.985
NC(=O)c1ccc(I)c([N+](=O)[O-])c1	0.191
NC(=O)Nc1cc(-c2cccc(F)c2)sc1C(=O)N[C@H]1CCCNC1	0.978

* * *

Parameter: growth inhibition by drug alone. Scope: all listed entries.
System: U-2932
Assay: growth inhibition by drug alone (1 - RLU/untreated control) (fraction); higher = stronger inhibition
Settings: 10 nM; time (day): 6; 177Lu-lilotomab satetraxetan 0 ug/ml
ENDPOINT_NAME: growth inhibition by drug alone

COMPOUND	MEASURED_TARGET	ENDPOINT_NAME	RESULT
Cc1[nH]c2ccccc2c1CCNCc1ccc(/C=C/C(=O)NO)cc1 [Panobinostat]	U-2932	growth inhibition by drug alone	0.31
O=C1c2ccccc2C(=O)c2c(NCCc3ccc(O)cc3)ccc(NCCc3ccc(O)cc3)c21	U-2932	growth inhibition by drug alone	-0.425
COc1cc2nccc(Oc3ccc(NC(=O)C4(C(=O)Nc5ccc(F)cc5)CC4)cc3)c2cc1OC [XL-184 free base (Cabozantinib)]	U-2932	growth inhibition by drug alone	-0.0896
CC1(C)CCC(c2ccc(Cl)cc2)=C(CN2CCN(c3ccc(C(=O)NS(=O)(=O)c4ccc(N[C@H](CCN5CCOCC5)CSc5ccccc5)c(S(=O)(=O)C(F)(F)F)c4)cc3)CC2)C1 [ABT-263 (Navitoclax)]	U-2932	growth inhibition by drug alone	0.024
Nc1ncn([C@@H]2O[C@H](CO)[C@@H](O)[C@H]2O)c(=O)n1 [Azacitidine (Vidaza)]	U-2932	growth inhibition by drug alone	-0.0507
O=C1c2ccccc2-c2nc3nonc3nc21	U-2932	growth inhibition by drug alone	-0.0365
O=C(O)C1(C(=O)O)CCC1.[NH2-].[NH2-].[Pt+2] [Carboplatin]	U-2932	growth inhibition by drug alone	-0.000763
O=c1[nH]nc(Sc2ncc([N+](=O)[O-])s2)n1-c1ccc2c(c1)OCCO2	U-2932	growth inhibition by drug alone	-0.247

* * *

System: U-2932
Assay: growth inhibition by drug alone (1 - RLU/untreated control) (fraction); higher = stronger inhibition
Details: 1000 nM; time (day): 4; 177Lu-lilotomab satetraxetan 0 ug/ml
Structures can show the parent of a compound that is named as a salt.
Parameter: growth inhibition by drug alone. Scope: all listed entries.

COMPOUND	growth inhibition by drug alone
O=C(NOC[C@H](O)CO)c1ccc(F)c(F)c1Nc1ccc(I)cc1F	0.19
O=c1cc(-c2cccc3c2Sc2ccccc2S3)oc(N2CCOCC2)c1	-0.0342
Nc1ncn([C@@H]2O[C@H](CO)[C@@H](O)[C@H]2O)c(=O)n1	-0.0618
O=C(O)C(=O)O.[NH-]C1CCCCC1[NH-].[Pt+2] (stereo not drawn) [Oxaliplatin (Eloxatin)]	0.565
Cn1cnc([N+](=O)[O-])c1Sc1ncnc2[nH]cnc12	0.0404
C=CCc1cccc(/C=N/NC(=O)CN2CCN(Cc3ccccc3)CC2)c1O	0.136
Cc1ccc(-c2cc(C(F)(F)F)nn2-c2ccc(S(N)(=O)=O)cc2)cc1	-0.0104
COc1ccc(CCN2CCN(CCCc3ccccc3)CC2)cc1OC	-0.091
Cc1ccc(NC(=O)c2cccc(C(C)(C)C#N)c2)cc1Nc1ccc2ncn(C)c(=O)c2c1	0.159
COc1ccc(S(=O)(=O)Nc2cccnc2Nc2ccc(O)cc2)cc1	0.918
C[C@]12CC[C@@H]3c4ccc(O)cc4CC[C@H]3[C@@H]1CC[C@@H]2O	0.0434
CN1CCN(c2nc(C3=C(c4c[nH]c5ccccc45)C(=O)NC3=O)c3ccccc3n2)CC1	0.616
O=C(O[C@@H]1Cc2c(O)cc(O)cc2O[C@@H]1c1cc(O)c(O)c(O)c1)c1cc(O)c(O)c(O)c1 [(-)-Epigallocatechin gallate]	-0.0657
COc1cc2nccc(Oc3ccc(NC(=O)Nc4cc(C)on4)c(Cl)c3)c2cc1OC	0.0968
CN1CCN(c2ccc3nc(-c4c(N)c5c(F)cccc5[nH]c4=O)[nH]c3c2)CC1	-0.0112
COc1cc2c(cc1OC)CN(CCc1ccc(NC(=O)c3cccc4c(=O)c5cccc(OC)c5[nH]c34)cc1)CC2	0.0649
COc1nc(-c2ccc3c(c2)OCO3)n(-c2ccc(NC(=O)CSc3ccccc3)cc2)n1	-0.0966
COc1ccc(CNC(=O)Nc2ncc([N+](=O)[O-])s2)cc1	0.0745
CC[C@]1(O)C[C@H]2CN(CCc3c([nH]c4ccccc34)[C@@](C(=O)OC)(c3cc4c(cc3OC)N(C=O)[C@H]3[C@@](O)(C(=O)OC)[C@H](OC(C)=O)[C@]5(CC)C=CCN6CC[C@]43[C@@H]65)C2)C1	0.972
NC(=O)c1ccc(I)c([N+](=O)[O-])c1	-0.0771
N#CCNC(=O)c1ccc(-c2ccnc(Nc3ccc(N4CCOCC4)cc3)n2)cc1	-0.159
O=C(O)Cc1cccc(OCCCN(Cc2cccc(C(F)(F)F)c2Cl)CC(c2ccccc2)c2ccccc2)c1	0.127
CC(C)C(=O)Nc1ccc([N+](=O)[O-])c(C(F)(F)F)c1 [Flutamide (Eulexin)]	0.123
CC[C@@]1(O)C(=O)OCc2c1cc1n(c2=O)Cc2cc3c(CN(C)C)c(O)ccc3nc2-1 [Topotecan HCl]	0.969
CCCC(=O)[O-].[Na+] [Sodium butyrate]	-0.0522
COc1cccc2c1C(=O)c1c(O)c3c(c(O)c1C2=O)C[C@@](O)(C(=O)CO)C[C@@H]3O[C@H]1C[C@H](N)[C@@H](O)[C@H](C)O1 [Epirubicin Hydrochloride]	0.964
CO[C@@H](C(=O)N1Cc2[nH]nc(NC(=O)c3ccc(N4CCN(C)CC4)cc3)c2C1)c1ccccc1	0.258
COC1=CC(c2cc3ccccc3[nH]2)=N/C1=C\c1[nH]c(C)cc1C [Obatoclax mesylate (GX15-070)]	0.0924
OC[C@H]1O[C@@H](n2cnc3c2N=CNC[C@H]3O)C[C@@H]1O	-0.074
O=c1cc(N2CCOCC2)oc2c(-c3ccccc3)cccc12	0.0696
CS(=O)(=O)c1cccc(CNc2nc(Nc3ccc4c(c3)CCC(=O)N4)ncc2C(F)(F)F)c1	-0.0365
Cn1nnc2c(C(N)=O)ncn2c1=O [Temozolomide]	0.0378
CCOc1ccc(Cc2cc([C@@H]3O[C@H](CO)[C@@H](O)[C@H](O)[C@H]3O)ccc2Cl)cc1	0.0655
